Listed next: entries and their corresponding pKi.
# System Name: Histone acetyltransferase KAT8 (Homo sapiens, UniProt Q9H7Z6)
# Sequence (Q9H7Z6 whole entry): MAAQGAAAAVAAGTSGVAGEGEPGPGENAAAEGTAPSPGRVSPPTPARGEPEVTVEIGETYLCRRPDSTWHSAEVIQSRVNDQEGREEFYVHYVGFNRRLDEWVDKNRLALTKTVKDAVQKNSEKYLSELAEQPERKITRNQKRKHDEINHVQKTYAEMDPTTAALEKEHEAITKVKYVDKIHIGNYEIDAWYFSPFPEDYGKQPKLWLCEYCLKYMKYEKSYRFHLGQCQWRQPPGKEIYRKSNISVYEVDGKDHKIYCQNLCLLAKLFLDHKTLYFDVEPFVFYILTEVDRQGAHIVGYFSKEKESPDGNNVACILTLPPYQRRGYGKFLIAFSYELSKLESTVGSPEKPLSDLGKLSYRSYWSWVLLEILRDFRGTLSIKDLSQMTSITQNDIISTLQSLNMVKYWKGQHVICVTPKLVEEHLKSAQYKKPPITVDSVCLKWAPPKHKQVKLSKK
# Assay Notes: Inhibition of recombinant N-terminal His6-tagged KAT8 (unknown origin) expressed in Escherichia Coli BL21 DE3 cells assessed as reduction of Co A level using histone H4 substrate after 15 mins by CPM fluorescence assay
pKi: −log10 of the molar value.

| Smiles Record | System Name | pKi |
| --- | --- | --- |
| CCCCCCCCCCCCCCCc1ccc(O)c(C(=O)O)c1 | Histone acetyltransferase KAT8 (Homo sapiens, UniProt Q9H7Z6) | 4.10 |
| CCCCCCCCCCc1ccc(O)c(C(=O)O)c1 | Histone acetyltransferase KAT8 (Homo sapiens, UniProt Q9H7Z6) | 4.24 |
| O=C(O)c1c(O)cccc1CCCCCCCCCCCO | Histone acetyltransferase KAT8 (Homo sapiens, UniProt Q9H7Z6) | 3.80 |
| CCCCCCCCCCc1cccc(O)c1C(=O)O | Histone acetyltransferase KAT8 (Homo sapiens, UniProt Q9H7Z6) | 4.43 |
